- protocol-text: Cytotoxicity against human SH-SY5Y cells after 72 hrs by MTT assay
- Assay type: cell-based
measure-name: pIC50
Hey, just a heads up that pIC50 is the negative log base 10 of the concentration in molar.

Example entries begin here.
In [3]: df
Out[3]:
                                 compound  observed
0  CN(CCCN1CCc2[nH]c3ccccc3c2C1)Cc1ccccc1      4.77
1    CN(CCCN1c2ccccc2Sc2ccccc21)Cc1ccccc1      4.77

Endpoint output: pIC50 of `CN(CCCN1C(=O)[C@H]2Cc3ccccc3CN2C1=O)Cc1ccccc1` . Value?
4.71

Item CN(CCCn1c(=O)oc2cc3c(cc21)C(c1ccc(Cl)cc1)CC3=O)Cc1ccccc1 (stereo unspecified) has what recorded pIC50?
5.30

What value of pIC50 has been recorded for this entry: `c1ccc2c(c1)CN(CCCN1CCc3oc4ccccc4c3C1)C2`
4.10

====

- protocol-text: Selectivity index, ratio of IC50 for human SH-SY5Y cells to Ki for human sigma 1 receptor in human Jurkat cell membranes
Listed next: entries and their corresponding Selectivity Index.
Provide a numeric answer; units are not to be included.

Illustrative cases are given below, each with its answer.
>>> df
                                   compound       measure_name  observed
0     CN(CCCN1c2ccccc2Oc2ccccc21)CCc1ccccc1  Selectivity Index      2606
1   c1ccc2c(c1)CN(CCCN1CCc3oc4ccccc4c3C1)C2  Selectivity Index      7173
2  c1ccc2c(c1)CN(CCCN1c3ccccc3Sc3ccccc31)C2  Selectivity Index      6942
3   CN(CCCN1CCc2[nH]c3ccccc3c2C1)CCc1ccccc1  Selectivity Index      3018
4  CN(CCCN1CCc2c([nH]c3ccccc23)C1c1ccccc1)CCc1ccccc1 (stereo unspecified)  Selectivity Index      1073

Fill in: Selectivity Index of `CN(CCCN1CCc2oc3ccccc3c2C1)CCc1ccccc1` is ___
10160

Request the reported Selectivity Index associated with `CN(CCCN1CCc2[nH]c3ccccc3c2C1)Cc1ccccc1`
939

Quick one: Selectivity Index for `CN(CCCN1CCc2c([nH]c3ccccc23)C1)Cc1ccccc1` ?
3177

// Selectivity Index lookup, key: c1ccc(C2c3[nH]c4ccccc4c3CCN2CCCN2CCCC2)cc1 (stereo unspecified)
1328

====

Overview of reported Ki across a group of compounds:
- protocol-text: Displacement of [3H]-DTG from rat cerebral cortex membrane sigma 2 receptor incubated for 1 hr by liquid scintillation counting
- Format: tissue-based
Expressed in nM, but write only the number.

// known answers, use as guide
>>> df
                                   compound  measure_name  endpoint_unit  observed
0  O=C1C2Cc3ccccc3CN2C(=O)N1CCCN1Cc2ccccc2C1 (stereo not drawn)            Ki             nM       416
1  CN(CCCN1C(=O)[C@@H]2Cc3ccccc3CN2C1=O)Cc1ccccc1            Ki             nM       496

Which Ki is reported for this compound? `CN(CCCN1C(=O)[C@H]2Cc3ccccc3CN2C1=O)Cc1ccccc1`
764

====

Listing of recorded Selectivity Index by entry.
- protocol-text: Selectivity index, ratio of IC50 for human SH-SY5Y cells to Ki for human sigma 1 receptor in human Jurkat cell membranes
Give only the figure.

Field: example entries. Status: answers known.
>>> df
                                   compound  observed
0  CN(CCCN1CCc2c([nH]c3ccccc23)C1)CCc1ccccc1      1611
1  c1ccc(C2c3[nH]c4ccccc4c3CCN2CCCN2Cc3ccccc3C2)cc1 (stereo not given)      2179
2  CN(CCCN1CCc2c([nH]c3ccccc23)C1c1ccccc1)Cc1ccccc1 (stereo not given)      2163

Turning now to a further compound:
Recorded Selectivity Index of `CN(CCCN1c2ccccc2Sc2ccccc21)CCc1ccccc1` , please.
782
